Consider the following sequences; for each one, report its total protein half-life in vivo.
Experiment: total protein half-life in vivo (active degradation + dilution); higher = more stable protein
Conditions: wild type E. coli NCM3722; growth: P-lim chemostat; doubling time 12 h
Give bare numbers, in h.

biopolymer_sequence	readout_type	recorded_number
MLYIFRLIITVIYSILVCVFGSIYCLFSPRNPKHVATFGHMFGRLAPLFGLKVECRKPTDAESYGNAIYIANHQNNYDMVTASNIVQPPTVTVGKKSLLWIPFFGQLYWLTGNLLIDRNNRTKAHGTIAEVVNHFKKRRISIWMFPEGTRSRGRGLLPFKTGAFHAAIAAGVPIIPVCVSTTSNKINLNRLHNGLVIVEMLPPIDVSQYGKDQVRELAAHCRSIMEQKIAELDKEVAEREAAGKV	total protein half-life in vivo	11.8

// next entry
# input Please report the recorded total protein half-life in vivo for MIIYLHGFDSNSPGNHEKVLQLQFIDPDVRLISYSTRHPKHDMQHLLKEVDKMLQLNVDERPLICGVGLGGYWAERIGFLCDIRQVIFNPNLFPYENMEGKIDRPEEYADIATKCVTNFREKNRDRCLVILSRNDEALNSQRTSEELHHYYEIVWDEEQTHKFKNISPHLQRIKAFKTLG [P0A8E1] .
# output 10.6

---

Consider the following sequences; for each one, report its total protein half-life in vivo.
Assay: total protein half-life in vivo (active degradation + dilution); higher = more stable protein
Conditions: E. coli NCM3722 delta-lon; growth: N-lim chemostat; doubling time 6 h
Give bare numbers, in h.

Below are worked cases with known answers.
biopolymer_sequence	unit_string	total protein half-life in vivo
MSEVEFSHEYWMRHALTLAKRAWDEREVPVGAVLVHNNRVIGEGWNRPIGRHDPTAHAEIMALRQGGLVMQNYRLIDATLYVTLEPCVMCAGAMIHSRIGRVVFGARDAKTGAAGSLMDVLHHPGMNHRVEITEGILADECAALLSDFFRMRRQEIKAQKKAQSSTD	h	4.63
MVSSFTSAPRSGFYYFAQGWKLVSQPGIRRFVILPLLVNILLMGGAFWWLFTQLDVWIPTLMSYVPDWLQWLSYLLWPLAVISVLLVFGYFFSTIANWIAAPFNGLLAEQLEARLTGATPPDTGIFGIMKDVPRIMKREWQKFAWYLPRAIVLLILYFIPGIGQTVAPVLWFLFSAWMLAIQYCDYPFDNHKVPFKEMRTALRTRKITNMQFGALTSLFTMIPLLNLFIMPVAVCGATAMWVDCYRDKHAMWR [P0A6J3]	h	6.33

Dear colleague, could you send me total protein half-life in vivo for each of the items below? Thanks.
1. MTGMTNVTKLASEPSGQEFLVFTLGDEEYGIDILKVQEIRGYDQVTRIANTPAFIKGVTNLRGVIVPIVDLRIKFSQVDVDYNDNTVVIVLNLGQRVVGIVVDGVSDVLSLTAEQIRPAPEFAVTLSTEYLTGLGALGDRMLILVNIEKLLNSEEMALLDSAASEVA [P0A964]
2. MSKIKGNVKWFNESKGFGFITPEDGSKDVFVHFSAIQTNGFKTLAEGQRVEFEITNGAKGPSAANVIAL [P0A972]

# output
1. 5.4
2. 3.44

Dear colleague, could you send me total protein half-life in vivo for each of the items below? Thanks.
1. MLSRHINYFLAVAEHGSFTRAASALHVSQPALSQQIRQLEESLGVPLFDRSGRTIRLTDAGEVWRQYASRALQELGAGKRAIHDVADLTRGSLRIAVTPTFTSYFIGPLMADFYARYPSITLQLQEMSQEKIEDMLCRDELDVGIAFAPVHSPELEAIPLLTESLALVVAQHHPLAVHEQVALSRLHDEKLVLLSAEFATREQIDHYCEKAGLHPQVVIEANSISAVLELIRRTSLSTLLPAAIATQHDGLKAISLAPPLLERTAVLLRRKNSWQTAAAKAFLHMALDKCAVVGGNESR
2. MPRFAANLSMMFTEVPFIERFAAARKAGFDAVEFLFPYNYSTLQIQKQLEQNHLTLALFNTAPGDINAGEWGLSALPGREHEAHADIDLALEYALALNCEQVHVMAGVVPAGEDAERYRAVFIDNIRYAADRFAPHGKRILVEALSPGVKPHYLFSSQYQALAIVEEVARDNVFIQLDTFHAQKVDGNLTHLIRDYAGKYAHVQIAGLPDRHEPDDGEINYPWLFRLFDEVGYQGWIGCEYKPRGLTEEGLGWFDAWR

# output
1. 6.84
2. 2.48

# input Please report the recorded total protein half-life in vivo for MTPEHLPTEQYEAQLAEKVVRLQSMMAPFSDLVPEVFRSPVSHYRMRAEFRIWHDGDDLYHIIFDQQTKSRIRVDSFPAASELINQLMTAMIAGVRNNPVLRHKLFQIDYLTTLSNQAVVSLLYHKKLDDEWRQEAEALRDALRAQNLNVHLIGRATKTKIELDQDYIDERLPVAGKEMIYRQVENSFTQPNAAMNIQMLEWALDVTKGSKGDLLELYCGNGNFSLALARNFDRVLATEIAKPSVAAAQYNIAANHIDNVQIIRMAAEEFTQAMNGVREFNRLQGIDLKSYQCETIFVDPPRSGLDSETEKMVQAYPRILYISCNPETLCKNLETLSQTHKVERLALFDQFPYTHHMECGVLLTAK .
# output 5.53
